tested on: BACE1 (Homo sapiens, UniProt P56817)
Sequence (P56817 46-501, species assumed): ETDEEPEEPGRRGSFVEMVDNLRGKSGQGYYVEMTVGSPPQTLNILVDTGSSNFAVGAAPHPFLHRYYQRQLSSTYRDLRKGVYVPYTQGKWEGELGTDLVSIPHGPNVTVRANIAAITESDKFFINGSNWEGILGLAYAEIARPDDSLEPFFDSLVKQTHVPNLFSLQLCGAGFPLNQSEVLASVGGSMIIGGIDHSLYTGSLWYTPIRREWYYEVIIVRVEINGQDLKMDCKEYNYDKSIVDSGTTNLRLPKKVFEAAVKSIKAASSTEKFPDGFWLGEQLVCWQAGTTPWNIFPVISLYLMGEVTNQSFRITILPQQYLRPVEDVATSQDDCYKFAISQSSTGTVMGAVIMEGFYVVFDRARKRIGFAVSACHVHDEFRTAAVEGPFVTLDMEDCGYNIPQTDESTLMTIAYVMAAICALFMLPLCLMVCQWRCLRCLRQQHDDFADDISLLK
assay procedure: In Vitro BACE Cell-based Assay (HEK cell assay): Aβ40 in conditioned medium of cells stably expressing Amyloid Precursor Protein, sandwich ELISA
test settings: Table IV, class symbols; read-out: HEK cell assay
pIC50: −log10 of the molar value.
reported metric: pIC50

Some entries whose results are on file:
compound structure: CC(C)(C)COc1ccc2c(c1)[C@]1(COC(N)=N1)c1cc(-c3cnc(Cl)nc3)ccc1O2
tested on: BACE1 (Homo sapiens, UniProt P56817)
pIC50: 6.00 to 7.00
--
compound structure: COc1cnc2c(c1)[C@@]1(COC(N)=N1)c1cc(Br)ccc1O2
tested on: BACE1 (Homo sapiens, UniProt P56817)
pIC50: < 5.30

Next, consider the following compound.
Read off the recorded pIC50 for CC(C)(C)COc1ccc2c(c1)[C@]1(COC(N)=N1)c1cc(C(=O)O)ccc1O2
< 5.30

----------
tested on: BACE1 (Homo sapiens)
assay procedure: In Vitro Enzymatic BACE FRET (Fluorescence Resonance Energy Transfer) Assay
Assay type: biochemical
test settings: read-out: BACE1 FRET assay
reported metric: IC50

Some entries whose results are on file:
compound: NC1=N[C@@]2(CO1)c1cc(-c3cncnc3)ccc1Oc1ccc(N3CCOC4(CCCC4)C3)cc12 [compound 462]
value observed: < 100 nM

compound: CC(C)N1CC=C(c2ccc3c(c2)[C@]2(COC(N)=N2)c2cc(-c4cncnc4)ccc2O3)CC1 [compound 714]
value observed: 100 to 1000 nM

compound: COC(=O)/C=C/c1ccc2c(c1)[C@@]1(COC(N)=N1)c1cc(Br)ccc1O2 [compound 950]
value observed: 1000 to 5000 nM

compound: COC(C)(C)C#Cc1cnc2c(c1)[C@@]1(COC(N)=N1)c1cc(-c3cncc(F)c3)ccc1O2 [compound 699]
value observed: 100 to 1000 nM

Next, consider the following compound.
Read off the recorded IC50 for CC1(C#Cc2cnc3c(c2)[C@]2(COC(N)=N2)c2cc(-c4ccccc4F)ccc2O3)COC1 [compound 520]
< 100 nM

----------
tested on: BACE1 (Homo sapiens)
assay procedure: In Vitro BACE Cell-based Assay (HEK cell assay): Aβ40 in conditioned medium of cells stably expressing Amyloid Precursor Protein, sandwich ELISA
test settings: read-out: HEK cell assay
Each entry below carries its reported IC50.

molecule: NC1=N[C@@]2(CO1)c1cc(Oc3ccccn3)ccc1Oc1ncc(Br)cc12 [compound 936]
IC50: > 5 µM
--
molecule: CC(C)(C)COc1ccc2c(n1)[C@@]1(COC(N)=N1)c1cc(-c3cncnc3)ccc1O2 [compound 732]
IC50: 1 to 5 µM
--
molecule: COC(C)(C)COc1ccc2c(c1)[C@@]1(COC(N)=N1)c1cc(-c3cccnc3)cnc1O2 [compound 983]
IC50: < 0.1 µM

Read off the recorded IC50 for CC(C)(O)C#Cc1cnc2c(c1)[C@@]1(COC(N)=N1)c1cc(-c3ccccc3)ccc1O2 [compound 709]
> 5 µM

Read off the recorded IC50 for COc1ncc(-c2ccc3c(c2)[C@@]2(COC(N)=N2)c2cc(OCC(C)(C)C)ccc2O3)cn1 [compound 977]
1 to 5 µM

Read off the recorded IC50 for CCCOc1cc2c(cc1F)Oc1ccc(-c3cncnc3)cc1[C@]21COC(N)=N1 [compound 941]
1 to 5 µM

Read off the recorded IC50 for Cn1cc(-c2ccc3c(c2)[C@]2(COC(N)=N2)c2cc(-c4cccnc4)ccc2O3)cn1 [compound 710]
< 0.1 µM

Read off the recorded IC50 for NC1=N[C@]2(CO1)c1cc(-c3cccnc3)ccc1Oc1cnc(Cl)cc12 [compound 953]
1 to 5 µM

Read off the recorded IC50 for CC(C)(C)COc1ccc2c(c1)[C@@]1(COC(N)=N1)c1cc(-c3ccc(OCC4CC4)nc3)cnc1O2 [compound 741]
< 0.1 µM

----------
tested on: BACE1 (Homo sapiens)
assay procedure: In Vitro Enzymatic BACE FRET (Fluorescence Resonance Energy Transfer) Assay
Assay type: biochemical
test settings: Table 1; read-out: BACE1 FRET assay
Procedure: In Vitro Enzymatic BACE FRET (Fluorescence Resonance Energy Transfer) Assay (Enzyme Assay Data in the Example Tables I, II, III & IV) The assay buffer used in this screen is 0.05 M acetate, pH 4.2, 10% DMSO final, 100 uM genapol (which is a nonionic detergent, below its Critical Micelle Concentration). […] The FRET assay is terminated with by addition of Tris buffer, which raises the pH to neutrality, and the fluorescence is determined. […]
pIC50: −log10 of the molar value.
Each entry below carries its reported pIC50.

Give measured pIC50 for COc1ccc2c(c1)C1(COC(N)=N1)c1cc(-c3cccc(Cl)c3F)ccc1O2 (centres unmarked) (BACE1 (Homo sapiens)).
5.30 to 6.00

----------
Each entry below carries its reported IC50.
tested on: BACE1 (Homo sapiens, UniProt P56817)
assay procedure: In Vitro Enzymatic BACE FRET (Fluorescence Resonance Energy Transfer) Assay
Type: biochemical
test settings: read-out: BACE1 FRET assay

compound structure: CC(=O)COc1ccc2c(c1)[C@@]1(COC(N)=N1)c1cc(-c3cccnc3)cnc1O2
tested on: BACE1 (Homo sapiens, UniProt P56817)
value observed: 100 to 1000 nM

compound structure: CC1(COc2cnc3c(c2)[C@]2(COC(N)=N2)c2cc(-c4ccccc4)ccc2O3)COC1
tested on: BACE1 (Homo sapiens, UniProt P56817)
value observed: < 100 nM

compound structure: NC1=N[C@@]2(CO1)c1cc(-c3cccnc3)ccc1Oc1cnc(N3CCC(=O)CC3)cc12
tested on: BACE1 (Homo sapiens, UniProt P56817)
value observed: < 100 nM

Read off the recorded IC50 for Cc1cccc(-c2ccc3c(c2)[C@]2(COC(N)=N2)c2cc(-c4cncnc4)ccc2O3)c1
< 100 nM

----------
tested on: BACE1 (Homo sapiens, UniProt P56817)
assay procedure: In Vitro Enzymatic BACE FRET (Fluorescence Resonance Energy Transfer) Assay
Type: biochemical
test settings: Table IV, class symbols; read-out: BACE1 FRET assay
pIC50: −log10 of the molar value.
Each entry below carries its reported pIC50.

compound: CC(C)(C)COc1ccc2c(c1)[C@]1(COC(N)=N1)c1cc(C3CCCCC3)ccc1O2 [compound 802]
reported metric: pIC50
value observed: > 7.00

Read off the recorded pIC50 for CC1(C)CN(c2ccc3c(c2)[C@]2(COC(N)=N2)c2cc(-c4cccnc4)ccc2O3)CCO1 [Example 663]
> 7.00

Read off the recorded pIC50 for CN(C)c1ncc(-c2ccc3c(c2)[C@@]2(COC(N)=N2)c2cc(OCC(C)(C)C)ccc2O3)cn1 [compound 838]
< 5.30

Read off the recorded pIC50 for COc1ccc2c(c1)[C@]1(COC(N)=N1)c1cc(-c3cncc4ccccc34)ccc1O2 [compound 634]
6.00 to 7.00

Read off the recorded pIC50 for CC(C)c1nc(-c2ccc3c(c2)[C@@]2(COC(N)=N2)c2cc(OCC(C)(C)C)ccc2O3)cs1 [compound 832]
6.00 to 7.00

Read off the recorded pIC50 for NC1=N[C@]2(CO1)c1ccccc1Oc1ncc(-c3cncnc3)cc12 [compound 661]
6.00 to 7.00

----------
tested on: BACE1 (Homo sapiens)
assay procedure: In Vitro Enzymatic BACE FRET (Fluorescence Resonance Energy Transfer) Assay
Type: biochemical
test settings: in vitro BACE FRET enzyme assay, IC50 class symbols; read-out: BACE1 FRET assay
Each entry below carries its reported IC50.

compound: NC1=N[C@@]2(CO1)c1cc(-c3cncnc3)ccc1Oc1c(F)cc(OCC3CCOCC3)cc12 [compound 417]
value observed: < 100 nM

Read off the recorded IC50 for Cc1cc(-c2ccc3c(c2)[C@]2(COC(N)=N2)c2cc(-c4cccnc4)ccc2O3)cc(=O)o1 [compound 390]
< 100 nM

Read off the recorded IC50 for COc1ccc2c(c1)[C@]1(COC(N)=N1)c1cc(C3=CCOCC3)cc(F)c1O2 [compound 363]
> 5000 nM

Read off the recorded IC50 for CC(C)(C#N)COc1ccc2c(c1)[C@@]1(COC(N)=N1)c1cc(-c3ccc(C#N)cc3)cnc1O2 [compound 340]
< 100 nM

Read off the recorded IC50 for CC(C)(C#N)COc1ccc2c(c1)[C@@]1(COC(N)=N1)c1cc(-c3ccc(OC(F)(F)F)cc3)cnc1O2 [compound 342]
< 100 nM

Read off the recorded IC50 for NC1=N[C@@]2(CO1)c1cc(-c3cccc(Cl)c3)ccc1Oc1ncc(-c3ccncc3)cc12 [compound 345]
< 100 nM

Read off the recorded IC50 for COc1ccc2c(c1)[C@@]1(COC(N)=N1)c1cc(Br)cc(F)c1O2 [compound 378]
1000 to 5000 nM

Read off the recorded IC50 for CC(C)(C#Cc1cnc2c(c1)[C@]1(COC(N)=N1)c1cc(-c3cccnc3)ccc1O2)N1CCC1 [compound 320]
< 100 nM

Read off the recorded IC50 for CC(C)(C)COc1cnc2c(c1)[C@]1(COC(N)=N1)c1cc(C#CC3(C)COC3)ccc1O2 [compound 323]
< 100 nM

Data origin: patent US8426447B2
